Target sequence: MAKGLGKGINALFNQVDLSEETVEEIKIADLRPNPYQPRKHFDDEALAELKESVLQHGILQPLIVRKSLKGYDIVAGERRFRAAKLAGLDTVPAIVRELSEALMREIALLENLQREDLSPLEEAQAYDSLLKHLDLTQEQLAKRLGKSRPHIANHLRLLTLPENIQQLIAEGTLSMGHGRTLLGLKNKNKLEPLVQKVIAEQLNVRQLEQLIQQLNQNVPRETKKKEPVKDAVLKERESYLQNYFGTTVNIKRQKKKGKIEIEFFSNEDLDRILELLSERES
pKd: −log10 of the molar value.
measurementLabel: pKd

Lookup: Which measured pKd value corresponds to Nc1ccn([C@@H]2O[C@H](COP(=O)(O)OP(=O)(O)OP(=O)(O)O)[C@@H](O)[C@H]2O)c(=O)n1 [CTP] ?
Found: 4.30 to 5.00
